Study system: T1, VP1 pentamer of BKV genotype II (recombinant) (BK virus genotype II, UniProt P14996 30-300)
T1 construct: also called GII; VP1 geno II pentamer; not shown: N-terminal His-tag of pESPRIT002; C-terminal biotin acceptor peptide (BAP) of pESPRIT002
Test method notes: ELISA, coated VP1 pentamer
Property label: EC50 (µg/mL)

1) antibody G9P2 (antibody, V domains shown) VH: EVQLLESGGGLVQPGGSLRLSCAASGFTFSSYAMSWVRQAPGKGLEWVSSLTGSGGSTYYRDSVKGRFTIFRDNSKKTLYMQMNSLRAEDTAVYYCAKEGAYSYDFWYFDLWGRGTLVTVSS VL: EIVLTQSPGTLSLSPGERATLSCRASQTVSGNYLAWYQQKPGQSPSLLTYGASSRATGIPDRFTGSGSGTDFTLTISRLEPADFAVYYCQQYGRPLTFGGGTKVEIK ... 1.5
2) antibody B7P6 (antibody, V domains shown) VH: EVQLVQSGAELKKPGESLKISCKGSGFTFTNYWIAWVRQMPGKGLEWMGIIYPDDSDARYSPSFEGQVTISVDKSISTAYLQWSSLKASDTAIYYCARGGFCSGSVCYNPAWFDLWGQGTLVTVSS VL: DIQMTQSPSSLSASVGDRVTITCRASQTINTYLNWYLQKPGKAPKLLISDASSLETGVPSRFSGSGSGTDFTLTISSLQPDDFATYYCQQSYSTPLTFGGGTKVEIK ... 0.04
3) antibody G7P7 (antibody, V domains shown) VH: QVQLQESGPGLVRPSQTLSLTCTVSGGSMTSGSYYWSWIRQPAEKGLEWIGRIYTSGRTDYNPSLKSRVAMSIDTSKNQFSLRLTSVTAADTAVYYCARWGDSSAYYYVGDPWGRGTPVTVSS VL: DIQMTQSPSSLSASIGDRVTITCRASQNINTYLYWYQQKPGKAPQLLIYAASNLQTGAPSRFSGSGSGTDFTLTISSLQPADFATYYCQQSFSLPHTFGQGTKLEIK ... 0.06
